These measurements were taken from PubChem BioAssay (NCI).

# Tested on: M14 melanoma
# protocol description: NCI-60 one-dose screen, 48 h (100 = growth as untreated, 0 = no growth, -100 = all killed)
# experimental conditions: 10 µM unless noted
The panel holds about 83,000 compounds, 20% with a hit somewhere; the sample as a whole holds those more often.
reported property: growth (%)
Numbers only here, please. The scale is %.

compound | unit annotation | growth
Cn1cc(C(=O)c2nc(-c3c[nH]c4ccccc34)no2)c2cc(F)ccc21 | % | 33

IN: Using the record for "CCCn1cc2c(=O)nc3sc(Cc4ccccc4)c(C)n3c2n1" , report its growth.
OUT: 112

IN: Tell me the measured growth of "C=C(C)[C@@H]1CC[C@]2(C(=O)N3CCOCC3)CC[C@]3(C)[C@H](CC[C@@H]4[C@@]5(C)C/C(=C/c6ccncc6)C(=O)C(C)(C)[C@@H]5CC[C@]43C)[C@@H]12" , please.
OUT: 75

* * *

# Tested on: BT-549 breast
# protocol description: NCI-60 one-dose screen, 48 h
# experimental conditions: 10 µM unless noted
This is part of a sample that, as a whole, favours compounds with a hit. Of some 83,000 tested, about 20% had one in any assay. Activity calls are given as the source filed them. How the source made its calls: active means growth percent below 10; inactive means the rest.
Answer with one of the outcomes given here: active, inactive

These solved cases illustrate the format of a correct answer.
molecule | assigned category
CCSC(SCC)c1ccc(Cl)cc1 | inactive
NC(=O)C(=O)c1ccccc1NC=O | inactive
N#Cc1c(-c2ccc(Cl)cc2)c(C#N)c2c(C#N)c(N)nn2c1N | inactive
N#CC1=C(N)Oc2c(c(=O)[nH]c3ccc(Cl)cc23)C12C(=O)c1ccccc1C2=O | inactive
COc1ccc2cc1Oc1ccc(cc1)C[C@H]1c3c(cc4c(c3Oc3cc5c(cc3OC)CCN(C)[C@@H]5C2)OCO4)CCN1C | inactive
O=C1/C(=C/c2cccc(F)c2)CN(C(=O)C(Cl)Cl)C/C1=C\c1cccc(F)c1 | active

IN: I'd appreciate the recorded outcome for "CCCn1cc2c(=O)nc3sc(Cc4ccccc4)c(C)n3c2n1" from this test.
OUT: inactive

IN: # outcome recorded in this test, key = "CCN(CC)Cc1cc(C=C2C(=O)NC(=S)NC2=O)cc(OC)c1O"
OUT: inactive

* * *

# Test system: RPMI-8226 leukemia
# protocol description: NCI-60 one-dose screen, 48 h (100 = growth as untreated, 0 = no growth, -100 = all killed)
# experimental conditions: 10 µM unless noted
Compounds without any hit were thinned out: in the full panel of roughly 83,000, 20% have a hit. Activity calls are given as the source filed them. Rule for the calls: active = growth percent below 10; inactive = the rest.
reported property: growth

As a guide, the following entries are already answered.
compound | recorded result
COc1ccc(F)cc1/C=C/C(=O)/C=C(/C=C/c1cc(F)ccc1OC)OB(F)F | -13.5% (active)
COc1cccc(CNc2ccc3ncnc(Nc4ccc(F)c(Cl)c4)c3c2)c1 | 68.3% (inactive)
Nc1nc2ccccc2c2c1S(=O)(=O)c1ccc(Cl)cc1C2=O | -15.1% (active)
C#CCOc1ccc2ncnc(Nc3ccc(NC(=O)C=C)cc3)c2c1 | -29.4% (active)
O=C(Nc1ccc(Oc2cccc(Cl)c2)c(Cl)c1)c1cccnc1 | 11.9% (inactive)
Cc1cc(C)c2c(c1)N(C)c1ncnc(-n3cnc4cc(C)ccc43)c1CC2C (stereo unspecified) | 9.87% (active)
CC(C)c1ccc(C(=O)Nc2sc3c(c2C(N)=O)CCC(=O)C3)cc1 | -37.1% (active)
COc1ccc(NC(=O)c2sc3nc(C)c(C(=O)/C=C/c4ccccc4)cc3c2N)cc1 | -24.4% (active)

IN: # lookup: growth of "Cc1ccc(Nc2cc(N)nc(N)n2)cc1Cl"
OUT: 81.6% (inactive)

IN: # lookup: growth of "CCN(CC)CCn1c2ccc(O)cc2c2sc3cc(O)ccc3c(=O)c21"
OUT: 28.3% (inactive)

IN: I am curious: what growth value has been reported for "CCOC(=O)Cc1cnc(N/N=C(\C)c2cc3ccccc3o2)s1" ?
OUT: 98.6% (inactive)
